# Test system: EGFR (human), P00533 [T790M/L858R]
# Assay explanation: KINOMEscan competition binding
# Experimental setup: compound 1.0 µM
Experimental readout: kinase still bound, per cent of control (%)
Answers are plain numbers, in %.

>  <Compound structure string>
Cc1cc(NC(=O)c2cccc(NC(=O)/C=C/CN(C)C)c2)ccc1Nc1nccc(-c2cccnc2)n1

>  <Scale unit>
%

>  <Reported result>
81

$$$$
>  <Compound structure string>
CN(C)C/C=C/C(=O)Nc1cccc(C(=O)Nc2ccc(Nc3nccc(/C(C#N)=C4\Nc5ccccc5S4)n3)cc2)c1

>  <Scale unit>
%

>  <Reported result>
100

$$$$
>  <Compound structure string>
CN(C)C/C=C/C(=O)Nc1cccc(C(=O)Nc2ccc(Nc3nccc(-c4cccnc4)n3)cc2)c1

>  <Scale unit>
%

>  <Reported result>
100

$$$$

What the record says about CN(C)C/C=C/C(=O)Nc1cccc(C(=O)Nc2ccc(Nc3nccc(-c4c(-c5ccccc5)nn5ccccc45)n3)cc2)c1 : kinase still bound, per cent of control is 36

* * *

# System: ABL1 (human), P00519 [M351T]
# Assay explanation: KINOMEscan competition binding
# Experimental setup: compound 1.0 µM
Experimental readout: kinase still bound, per cent of control (%)
One number for each entry, in %.

Worked examples follow.
>  <Compound structure string>
CN(C)C/C=C/C(=O)Nc1cccc(C(=O)Nc2ccc(Nc3nccc(-c4cccnc4)n3)cc2)c1

>  <Reported result>
42

$$$$
>  <Compound structure string>
CN(C)C/C=C/C(=O)Nc1cccc(C(=O)Nc2ccc(Nc3nccc(-c4c(-c5ccccc5)nn5ccccc45)n3)cc2)c1

>  <Reported result>
14

$$$$
>  <Compound structure string>
Cc1cc(NC(=O)c2cccc(NC(=O)/C=C/CN(C)C)c2)ccc1Nc1nccc(-c2cccnc2)n1

>  <Reported result>
81

$$$$

Now for another entry.
GET /values?item= CN(C)C/C=C/C(=O)Nc1cccc(C(=O)Nc2ccc(Nc3nccc(/C(C#N)=C4\Nc5ccccc5S4)n3)cc2)c1 &system= ABL1 (human), P00519 [M351T] returns kinase still bound, per cent of control: 69

* * *

What kinase still bound, per cent of control was measured for each of the following?
# Test target: MAP3K11 (human)
# Assay explanation: KINOMEscan competition binding
# Experimental setup: compound 1.0 µM
Entry format: amount then unit.

Would you be so kind as to report kinase still bound, per cent of control for each listed record?
1. CN(C)C/C=C/C(=O)Nc1cccc(C(=O)Nc2ccc(Nc3nccc(-c4c(-c5ccccc5)nn5ccccc45)n3)cc2)c1
2. CN(C)C/C=C/C(=O)Nc1cccc(C(=O)Nc2ccc(Nc3nccc(/C(C#N)=C4\Nc5ccccc5S4)n3)cc2)c1
3. CN(C)C/C=C/C(=O)Nc1cccc(C(=O)Nc2ccc(Nc3nccc(-c4cccnc4)n3)cc2)c1
4. Cc1cc(NC(=O)c2cccc(NC(=O)/C=C/CN(C)C)c2)ccc1Nc1nccc(-c2cccnc2)n1

["71%", "100%", "67%", "91%"]

* * *

# Test target: HIPK2 (human) (UniProt Q9H2X6)
# Sequence (Q9H2X6 whole entry, looked up): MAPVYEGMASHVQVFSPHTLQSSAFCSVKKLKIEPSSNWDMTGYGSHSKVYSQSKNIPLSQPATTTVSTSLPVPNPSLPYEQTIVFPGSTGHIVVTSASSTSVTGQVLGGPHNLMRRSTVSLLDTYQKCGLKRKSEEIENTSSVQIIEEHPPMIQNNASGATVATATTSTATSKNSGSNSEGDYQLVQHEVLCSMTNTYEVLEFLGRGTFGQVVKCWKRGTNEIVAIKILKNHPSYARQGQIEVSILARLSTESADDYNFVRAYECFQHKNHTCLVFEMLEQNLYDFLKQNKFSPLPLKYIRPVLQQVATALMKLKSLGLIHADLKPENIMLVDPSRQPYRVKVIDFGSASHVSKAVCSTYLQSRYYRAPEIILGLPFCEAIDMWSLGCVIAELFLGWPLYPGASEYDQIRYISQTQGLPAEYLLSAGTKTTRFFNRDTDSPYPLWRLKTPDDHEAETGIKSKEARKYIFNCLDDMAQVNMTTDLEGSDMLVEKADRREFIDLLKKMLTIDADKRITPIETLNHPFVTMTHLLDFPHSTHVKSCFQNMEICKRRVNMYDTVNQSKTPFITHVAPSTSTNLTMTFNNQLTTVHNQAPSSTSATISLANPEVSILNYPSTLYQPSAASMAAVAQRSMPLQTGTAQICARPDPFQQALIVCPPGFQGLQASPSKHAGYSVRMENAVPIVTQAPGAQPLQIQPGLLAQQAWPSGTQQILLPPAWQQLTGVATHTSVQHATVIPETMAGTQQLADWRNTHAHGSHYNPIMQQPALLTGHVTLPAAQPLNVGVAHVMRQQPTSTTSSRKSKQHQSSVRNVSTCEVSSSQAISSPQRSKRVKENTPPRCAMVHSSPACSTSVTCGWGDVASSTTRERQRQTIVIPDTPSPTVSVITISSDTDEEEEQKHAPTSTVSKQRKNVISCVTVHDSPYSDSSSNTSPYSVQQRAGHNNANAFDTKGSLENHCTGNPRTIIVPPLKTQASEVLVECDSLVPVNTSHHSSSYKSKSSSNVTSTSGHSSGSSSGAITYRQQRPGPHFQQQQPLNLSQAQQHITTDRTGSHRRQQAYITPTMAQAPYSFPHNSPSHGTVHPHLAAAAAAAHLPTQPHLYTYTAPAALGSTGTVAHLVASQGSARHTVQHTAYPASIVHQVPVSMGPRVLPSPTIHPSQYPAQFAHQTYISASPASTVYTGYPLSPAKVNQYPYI
# Assay explanation: KINOMEscan competition binding
# Experimental setup: compound 1.0 µM
Experimental readout: kinase still bound, per cent of control (%)
Answers are plain numbers, in %.

>  <Compound structure string>
CN(C)C/C=C/C(=O)Nc1cccc(C(=O)Nc2ccc(Nc3nccc(-c4c(-c5ccccc5)nn5ccccc45)n3)cc2)c1

>  <Scale unit>
%

>  <kinase still bound, per cent of control>
97

$$$$

The following molecules each have a reported value; give each one's kinase still bound, per cent of control.
1. Cc1cc(NC(=O)c2cccc(NC(=O)/C=C/CN(C)C)c2)ccc1Nc1nccc(-c2cccnc2)n1
2. CN(C)C/C=C/C(=O)Nc1cccc(C(=O)Nc2ccc(Nc3nccc(/C(C#N)=C4\Nc5ccccc5S4)n3)cc2)c1
3. CN(C)C/C=C/C(=O)Nc1cccc(C(=O)Nc2ccc(Nc3nccc(-c4cccnc4)n3)cc2)c1

1: 71; 2: 60; 3: 9.2
